meta.source: the supplement of paper PMC7125110

Overview of recorded self-cleavage kobs at 640 uM GlcN6P for various variants
B1: glmS ribozyme (parent)
chain: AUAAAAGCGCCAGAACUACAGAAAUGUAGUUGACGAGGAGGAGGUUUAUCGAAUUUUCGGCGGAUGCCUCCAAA

Variants of: B1
Assay Comment: self-cleavage kobs at 640 uM GlcN6P; higher = faster cleavage; RNA array
Experimental Setup: with glucosamine-6-phosphate
Variants at the floor of the assay were thinned out.
Parameter Measured: self-cleavage kobs at 640 uM GlcN6P

- G9C A39U G40U: < 1e-05 s⁻¹
- G9A C50A U56C C67A: < 1e-05 s⁻¹
- A33G C50G G66U: 0.000115 s⁻¹
- U57C: 5.24e-05 s⁻¹
- G43C A52C C68A: < 1e-05 s⁻¹
- A12C A14C U31G: 0.00206 s⁻¹
- G13C A14U A42U A64G: < 1e-05 s⁻¹
- G38A G51U: < 1e-05 s⁻¹
- G37C G41C: < 1e-05 s⁻¹
- G21U U69G: 6.25e-05 s⁻¹
- A14C U55G C67U: 0.000309 s⁻¹
- C11G A15C G32U A33C C50U C71A: 0.000149 s⁻¹
- G9A C58A: < 1e-05 s⁻¹
- G7C A52U: < 1e-05 s⁻¹
- C11U G32C A36G: < 1e-05 s⁻¹
- A52C G62A G63C: < 1e-05 s⁻¹
- C8G C71U: < 1e-05 s⁻¹
- C10U C68G C70U: 0.00013 s⁻¹
- U65A G66A C71U: 0.000198 s⁻¹
- A14C C34U U54C: < 1e-05 s⁻¹
- C50A C61G C68G: 6.76e-05 s⁻¹
- U57A G60A C67G: 6.42e-05 s⁻¹
- A15G A39G: 0.0174 s⁻¹
- A12C C68U: 0.00018 s⁻¹
- G35C G66C: < 1e-05 s⁻¹
- C11U C61U: < 1e-05 s⁻¹
- A33U U46A: < 1e-05 s⁻¹
- C50U G59C: < 1e-05 s⁻¹
- A48G C71U: 4.86e-05 s⁻¹
- C34A G44A: < 1e-05 s⁻¹
- U30C A36C A39U G43A G44U: < 1e-05 s⁻¹
- G13U G35U G40U A53U: < 1e-05 s⁻¹
- A39G C71U: 0.00783 s⁻¹
- C11A A14U: 4.4e-05 s⁻¹
- U30G G62A: < 1e-05 s⁻¹
- U45G U65A: 0.001 s⁻¹
- C34U A39C C50G: < 1e-05 s⁻¹
- A36G U49A: < 1e-05 s⁻¹
- A48U C58A C61G: < 1e-05 s⁻¹
- G35C U65C G66A: < 1e-05 s⁻¹
- A48U U56G: 6.91e-05 s⁻¹
- U49G C50U G66U C70U: 8.76e-05 s⁻¹
- A53C C61U: < 1e-05 s⁻¹
- G38C U65C: < 1e-05 s⁻¹
- G43U U46A U47G C70G: < 1e-05 s⁻¹
- A39U G44A: 0.00078 s⁻¹
- A14G U69G: 0.000175 s⁻¹
- A39C G51A G63C: < 1e-05 s⁻¹
- A12U A39C A42U G60A: < 1e-05 s⁻¹
- G9U U30C A36C: < 1e-05 s⁻¹
- A15C G44C C50U: < 1e-05 s⁻¹
- G41A G51C: < 1e-05 s⁻¹
- G37A G44A U46C A48U C71U: < 1e-05 s⁻¹
- G7A A52G: < 1e-05 s⁻¹
- C16A G41U: < 1e-05 s⁻¹
- G66A C70G: 0.000305 s⁻¹
- G7U C10U A52U: < 1e-05 s⁻¹
- C8G G9C U55A: < 1e-05 s⁻¹
- G9U U54G C68U: < 1e-05 s⁻¹
- C11G G41C: < 1e-05 s⁻¹
- U56G A64C: 2.44e-05 s⁻¹
- G32C G35U A36C C68A: < 1e-05 s⁻¹
- A6C G35C G41A G62A: < 1e-05 s⁻¹
- G29A U56C: 0.000156 s⁻¹
- G32U U47A A53G U56A C71U: 7.91e-05 s⁻¹
- U31A U54A: 0.00342 s⁻¹
- C10U G62A: < 1e-05 s⁻¹
- A48C C71U: 4.42e-05 s⁻¹
- A6U G43U C70G: < 1e-05 s⁻¹
- G13C G29U G32A U54G U65C C68G U69G: 0.000623 s⁻¹
- U31C C71A: 0.00018 s⁻¹
- G29U A42G: 0.00202 s⁻¹
- A15G G29C: 0.000327 s⁻¹
- G21U G43U G51U: < 1e-05 s⁻¹
- G40C U45C A48G: < 1e-05 s⁻¹
- G37A U46G C71U: 6.59e-05 s⁻¹
- A52G U56A: 0.000166 s⁻¹
- A6U U55G: 4.48e-05 s⁻¹
- A15G U56A C61G: < 1e-05 s⁻¹
- A39C C50A: < 1e-05 s⁻¹
- C10G C16U U49C: < 1e-05 s⁻¹
- A12G A33G U57A G59U: < 1e-05 s⁻¹
- G40U G51A: < 1e-05 s⁻¹
- C8U C34G G41A: < 1e-05 s⁻¹
- C10U G43C U47C A52C U65C G66A C70G: < 1e-05 s⁻¹
- U47C U49C: < 1e-05 s⁻¹
- A14G G35U G66U: < 1e-05 s⁻¹
- A42C G44U: < 1e-05 s⁻¹
- G51U A53C: < 1e-05 s⁻¹
- C16G G35U: < 1e-05 s⁻¹
- U45G C70A: 0.000111 s⁻¹
